System: NCI-H661
Test: relative viability (nuclei count vs DMSO), 5 days (fraction); higher = more cells survive
Conditions: first compound 0.03162 µM
Collected relative viability values appear next to each entry.
Number only, please.

molecule	tested_target	relative viability
O=c1cc(N2CCOCC2)oc2c(-c3cccc4c3sc3ccccc34)cccc12 + C[C@@H](Oc1cc(-c2cnn(C3CCNCC3)c2)cnc1N)c1c(Cl)ccc(F)c1Cl [Crizotinib] (partner 1 µM)	NCI-H661	0.983

# input molecule: CCN(CC)CCCCNc1ncc2cc(-c3cc(OC)cc(OC)c3)c(NC(=O)NC(C)(C)C)nc2n1 + Nc1nc2[nH]cc(CCc3ccc(C(=O)N[C@@H](CCC(=O)O)C(=O)O)cc3)c2c(=O)[nH]1 [Pemetrexed] (partner 0.2 µM) ; wanted: its relative viability
0.886

###

System: LK-2
Assay: relative viability (nuclei count vs DMSO), 5 days (fraction); higher = more cells survive
Details: first compound 0.8 µM
Collected relative viability values appear next to each entry.
Number only, please.

# input compound: COc1nc(C)cnc1NS(=O)(=O)c1cccnc1-c1ccc(-c2nnco2)cc1 [Zibotentan] + N=C(N)NC(=N)NCCc1ccccc1 [Phenformin] (partner 250 µM) ; wanted: its relative viability
0.467

# input compound: O=c1cc(-c2cccc3c2Sc2ccccc2S3)oc(N2CCOCC2)c1 + CC1(C)CCC(c2ccc(Cl)cc2)=C(CN2CCN(c3ccc(C(=O)NS(=O)(=O)c4ccc(N[C@H](CCN5CCOCC5)CSc5ccccc5)c(S(=O)(=O)C(F)(F)F)c4)cc3)CC2)C1 [Navitoclax] (partner 0.5 µM) ; wanted: its relative viability
0.992

# input compound: COc1nc(C)cnc1NS(=O)(=O)c1cccnc1-c1ccc(-c2nnco2)cc1 [Zibotentan] + COc1cc2c(Oc3ccc(NC(=O)C4(C(=O)Nc5ccc(F)cc5)CC4)cc3F)ccnc2cc1OCCCN1CCOCC1 [Foretinib] (partner 0.25 µM) ; wanted: its relative viability
0.895

# input compound: O=c1cc(-c2cccc3c2Sc2ccccc2S3)oc(N2CCOCC2)c1 + Nc1nc2[nH]cc(CCc3ccc(C(=O)N[C@@H](CCC(=O)O)C(=O)O)cc3)c2c(=O)[nH]1 [Pemetrexed] (partner 0.2 µM) ; wanted: its relative viability
0.224

# input compound: O=c1cc(-c2cccc3c2Sc2ccccc2S3)oc(N2CCOCC2)c1 + Cc1nc(Nc2ncc(C(=O)Nc3c(C)cccc3Cl)s2)cc(N2CCN(CCO)CC2)n1 [Dasatinib] (partner 0.075 µM) ; wanted: its relative viability
0.267

# input compound: O=c1cc(-c2cccc3c2Sc2ccccc2S3)oc(N2CCOCC2)c1 + N=C(N)NC(=N)NCCc1ccccc1 [Phenformin] (partner 250 µM) ; wanted: its relative viability
0.524

# input compound: COc1nc(C)cnc1NS(=O)(=O)c1cccnc1-c1ccc(-c2nnco2)cc1 [Zibotentan] + Nc1ncn([C@H]2C[C@H](O)[C@@H](CO)O2)c(=O)n1 [Decitabine] (partner 2 µM) ; wanted: its relative viability
0.317

# input compound: COc1nc(C)cnc1NS(=O)(=O)c1cccnc1-c1ccc(-c2nnco2)cc1 [Zibotentan] + CS(=O)(=O)N1CCN(Cc2cc3nc(-c4cccc5[nH]ncc45)nc(N4CCOCC4)c3s2)CC1 [Pictilisib] (partner 1 µM) ; wanted: its relative viability
0.55

# input compound: O=c1cc(-c2cccc3c2Sc2ccccc2S3)oc(N2CCOCC2)c1 + CC(=O)Nc1cccc(-n2c(=O)n(C3CC3)c(=O)c3c(Nc4ccc(I)cc4F)n(C)c(=O)c(C)c32)c1 [Trametinib] (partner 0.02 µM) ; wanted: its relative viability
0.755

# input compound: COc1nc(C)cnc1NS(=O)(=O)c1cccnc1-c1ccc(-c2nnco2)cc1 [Zibotentan] + Cc1cc(Nc2cc(N3CCN(C)CC3)nc(Sc3ccc(NC(=O)C4CC4)cc3)n2)n[nH]1 [Tozasertib] (partner 0.1 µM) ; wanted: its relative viability
0.166

# input compound: O=c1cc(-c2cccc3c2Sc2ccccc2S3)oc(N2CCOCC2)c1 + NC(=O)Nc1cc(-c2cccc(F)c2)sc1C(=O)N[C@H]1CCCNC1 [AZD7762] (partner 0.2 µM) ; wanted: its relative viability
0.374

###

Tested on: 201T
Test: relative viability (nuclei count vs DMSO), 5 days (fraction); higher = more cells survive
Conditions: first compound 0.01 µM
readout_type: relative viability
Number only, please.

Example compounds with recorded relative viability:
compound	result
O=c1cc(N2CCOCC2)oc2c(-c3cccc4c3sc3ccccc34)cccc12 + C[C@@H](Oc1cc(-c2cnn(C3CCNCC3)c2)cnc1N)c1c(Cl)ccc(F)c1Cl [Crizotinib] (partner 1 µM)	1
CCN(CC)CCCCNc1ncc2cc(-c3cc(OC)cc(OC)c3)c(NC(=O)NC(C)(C)C)nc2n1 + NC(=O)Nc1cc(-c2cccc(F)c2)sc1C(=O)N[C@H]1CCCNC1 [AZD7762] (partner 0.2 µM)	0.747
O=c1cc(N2CCOCC2)oc2c(-c3cccc4c3sc3ccccc34)cccc12 + CC(=O)c1c(C)c2cnc(Nc3ccc(N4CCNCC4)cn3)nc2n(C2CCCC2)c1=O [Palbociclib] (partner 0.5 µM)	0.346
O=c1cc(N2CCOCC2)oc2c(-c3cccc4c3sc3ccccc34)cccc12 + N=C(N)NC(=N)NCCc1ccccc1 [Phenformin] (partner 250 µM)	0.289
O=c1cc(N2CCOCC2)oc2c(-c3cccc4c3sc3ccccc34)cccc12 + Cc1nc(Nc2ncc(C(=O)Nc3c(C)cccc3Cl)s2)cc(N2CCN(CCO)CC2)n1 [Dasatinib] (partner 0.075 µM)	0.592

# input compound: O=c1cc(N2CCOCC2)oc2c(-c3cccc4c3sc3ccccc34)cccc12 + Nc1ncn([C@H]2C[C@H](O)[C@@H](CO)O2)c(=O)n1 [Decitabine] (partner 2 µM) ; wanted: its relative viability
0.843

# input compound: O=c1cc(N2CCOCC2)oc2c(-c3cccc4c3sc3ccccc34)cccc12 + CC1(C)CCC(c2ccc(Cl)cc2)=C(CN2CCN(c3ccc(C(=O)NS(=O)(=O)c4ccc(N[C@H](CCN5CCOCC5)CSc5ccccc5)c(S(=O)(=O)C(F)(F)F)c4)cc3)CC2)C1 [Navitoclax] (partner 0.5 µM) ; wanted: its relative viability
1.2

# input compound: CCN(CC)CCCCNc1ncc2cc(-c3cc(OC)cc(OC)c3)c(NC(=O)NC(C)(C)C)nc2n1 + O=C(c1cc(Cc2n[nH]c(=O)c3ccccc23)ccc1F)N1CCN(C(=O)C2CC2)CC1 [Olaparib] (partner 8 µM) ; wanted: its relative viability
0.913

# input compound: CCN(CC)CCCCNc1ncc2cc(-c3cc(OC)cc(OC)c3)c(NC(=O)NC(C)(C)C)nc2n1 + Cc1cc(Nc2cc(N3CCN(C)CC3)nc(Sc3ccc(NC(=O)C4CC4)cc3)n2)n[nH]1 [Tozasertib] (partner 0.1 µM) ; wanted: its relative viability
0.995

# input compound: O=c1cc(N2CCOCC2)oc2c(-c3cccc4c3sc3ccccc34)cccc12 + CS(=O)(=O)CCNCc1ccc(-c2ccc3ncnc(Nc4ccc(OCc5cccc(F)c5)c(Cl)c4)c3c2)o1 [Lapatinib] (partner 2 µM) ; wanted: its relative viability
1.11

# input compound: CCN(CC)CCCCNc1ncc2cc(-c3cc(OC)cc(OC)c3)c(NC(=O)NC(C)(C)C)nc2n1 + CC(C)C[C@H](NC(=O)[C@H](Cc1ccccc1)NC(=O)c1cnccn1)B(O)O [Bortezomib] (partner 0.002 µM) ; wanted: its relative viability
1.03

# input compound: O=c1cc(N2CCOCC2)oc2c(-c3cccc4c3sc3ccccc34)cccc12 + NC(=O)Nc1cc(-c2cccc(F)c2)sc1C(=O)N[C@H]1CCCNC1 [AZD7762] (partner 0.2 µM) ; wanted: its relative viability
0.624

###

System: NCI-H1975
Assay: relative viability (nuclei count vs DMSO), 5 days (fraction); higher = more cells survive
Settings: first compound 2.53 µM
Collected relative viability values appear next to each entry.

# input molecule: COc1nc(C)cnc1NS(=O)(=O)c1cccnc1-c1ccc(-c2nnco2)cc1 [Zibotentan] + CC1(C)CCC(c2ccc(Cl)cc2)=C(CN2CCN(c3ccc(C(=O)NS(=O)(=O)c4ccc(N[C@H](CCN5CCOCC5)CSc5ccccc5)c(S(=O)(=O)C(F)(F)F)c4)cc3)CC2)C1 [Navitoclax] (partner 0.5 µM) ; wanted: its relative viability
1.02

# input molecule: COc1nc(C)cnc1NS(=O)(=O)c1cccnc1-c1ccc(-c2nnco2)cc1 [Zibotentan] + NC(=O)Nc1cc(-c2cccc(F)c2)sc1C(=O)N[C@H]1CCCNC1 [AZD7762] (partner 0.2 µM) ; wanted: its relative viability
0.659

# input molecule: COc1nc(C)cnc1NS(=O)(=O)c1cccnc1-c1ccc(-c2nnco2)cc1 [Zibotentan] + N=C(N)NC(=N)NCCc1ccccc1 [Phenformin] (partner 250 µM) ; wanted: its relative viability
0.413

# input molecule: O=c1cc(-c2cccc3c2Sc2ccccc2S3)oc(N2CCOCC2)c1 + O=C(c1cc(Cc2n[nH]c(=O)c3ccccc23)ccc1F)N1CCN(C(=O)C2CC2)CC1 [Olaparib] (partner 8 µM) ; wanted: its relative viability
0.666

These data points were gathered from the supplement of paper PMC10307832.
